target: acetylcholinesterase (AChE) (Homo sapiens); assay: AChE inhibition assay (Ellman's colorimetric method); assay type: biochemical; conditions: concentration that inhibits 50% of the AChE activity; read-out: AChEIC50
Sequence (P22303 32-614): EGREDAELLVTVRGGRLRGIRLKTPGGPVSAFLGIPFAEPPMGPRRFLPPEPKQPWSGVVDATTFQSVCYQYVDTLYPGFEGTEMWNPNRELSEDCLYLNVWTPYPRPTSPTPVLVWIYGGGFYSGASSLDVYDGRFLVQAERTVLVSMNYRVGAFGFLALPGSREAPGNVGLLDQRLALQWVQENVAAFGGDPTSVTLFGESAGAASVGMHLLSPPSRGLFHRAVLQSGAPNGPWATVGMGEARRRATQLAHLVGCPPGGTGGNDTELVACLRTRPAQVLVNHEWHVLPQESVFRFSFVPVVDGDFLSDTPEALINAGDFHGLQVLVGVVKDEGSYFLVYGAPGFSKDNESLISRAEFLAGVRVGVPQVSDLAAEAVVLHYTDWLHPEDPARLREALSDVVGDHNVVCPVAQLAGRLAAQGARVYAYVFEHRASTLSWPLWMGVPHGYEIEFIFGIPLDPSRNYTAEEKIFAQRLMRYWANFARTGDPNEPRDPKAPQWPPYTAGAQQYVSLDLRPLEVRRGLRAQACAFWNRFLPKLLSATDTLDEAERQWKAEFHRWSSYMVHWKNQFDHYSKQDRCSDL
metric_name: IC50 (µM)
Provide only the numeric value, understood in µM.

{"columns": ["smiles_structure", "display_unit", "IC50"],
 "data": [
  ["O=C1C=C(Nc2ccc(O)cc2)c2ccccc2C1=O", "µM", 30]
]}

Reported IC50 for O=C1C=C(Nc2ccccc2O)c2ccccc2C1=O : what is it?
16

* * *

test: Cyclic voltammetry in acetonitrile; type: physicochemical; conditions: first reduction wave, acetonitrile, vs SCE, scan rate 0.100 V·s−1
The entries below are paired with their reported E1/2 (I).
Provide only the numeric value, understood in V.

{"columns": ["compound", "display_unit", "E1/2 (I)"],
 "data": [
  ["N#Cc1ccc(NC2=CC(=O)c3ccccc3C2=O)cc1", "V", "−0.70"],
  ["Nc1ccc(NC2=CC(=O)c3ccccc3C2=O)cc1", "V", "−0.82"],
  ["O=C1C=CC(=O)c2ccccc21 [Compound 1, 1,4-naphthoquinone, reference compound]", "V", "−0.66"],
  ["CCCCNC1=CC(=O)c2ccccc2C1=O", "V", "−0.95"],
  ["O=C1C=Cc2ccccc2C1=O", "V", "−0.50"],
  ["COc1ccc(NC2=CC(=O)c3ccccc3C2=O)cc1", "V", "−0.82"],
  ["CCN(CC)C1=CC(=O)c2ccccc2C1=O", "V", "−0.94"]
]}

Consider the record given below.
Reported E1/2 (I) for O=C1C=C(Nc2ccc(O)cc2)C(=O)c2ccccc21 : what is it?
−0.81

* * *

test: Cyclic voltammetry in acetonitrile; format: physicochemical; conditions: first reduction wave, acetonitrile, scan rate 0.100 V·s−1
The entries below are paired with their reported ∆E (I).
Kindly write the number and append the unit.

{"columns": ["compound", "measurement"],
 "data": [
  ["O=C1C=C(Nc2ccc(O)cc2)C(=O)c2ccccc21", "70 mV"]
]}

Reported ∆E (I) for O=C1C=CC(=O)c2ccccc21 [Compound 1, 1,4-naphthoquinone, reference compound] : what is it?
80 mV

Reported ∆E (I) for COc1ccc(NC2=CC(=O)c3ccccc3C2=O)cc1 : what is it?
70 mV

Reported ∆E (I) for CCN(CC)C1=CC(=O)c2ccccc2C1=O : what is it?
70 mV

Reported ∆E (I) for N#Cc1ccc(NC2=CC(=O)c3ccccc3C2=O)cc1 : what is it?
80 mV

* * *

The entries below are paired with their reported Ipa/Ipc.
test: Cyclic voltammetry in acetonitrile; format: physicochemical; details: Tables S1/S2, acetonitrile, 100 mV.s-1
API doc: respond with a numeric literal and nothing else, no unit.

{"columns": ["smiles_structure", "metric_name", "measurement"],
 "data": [
  ["Nc1ccc(NC2=CC(=O)c3ccccc3C2=O)cc1", "Ipa/Ipc", 0.9],
  ["O=C1C=Cc2ccccc2C1=O", "Ipa/Ipc", 1.0],
  ["CCN(CC)C1=CC(=O)C(=O)c2ccccc21", "Ipa/Ipc", 0.9]
]}

Consider the record given below.
Reported Ipa/Ipc for CCN(CC)C1=CC(=O)c2ccccc2C1=O : what is it?
1.0

* * *

assay: Cyclic voltammetry in acetonitrile; type: physicochemical; details: Tables S1/S2, acetonitrile, 100 mV.s-1
The entries below are paired with their reported Ipa/Ipc.
API doc: respond with a numeric literal and nothing else, no unit.

Reported Ipa/Ipc for O=C1C=CC(=O)c2ccccc21 [Compound 1, 1,4-naphthoquinone, reference compound] : what is it?
0.9

Reported Ipa/Ipc for COc1ccc(NC2=CC(=O)c3ccccc3C2=O)cc1 : what is it?
1.0

Reported Ipa/Ipc for N#Cc1ccc(NC2=CC(=O)c3ccccc3C2=O)cc1 : what is it?
1.0

Reported Ipa/Ipc for O=C1C=C(Nc2ccc(O)cc2)C(=O)c2ccccc21 : what is it?
1.0

Reported Ipa/Ipc for CCCCNC1=CC(=O)c2ccccc2C1=O : what is it?
1.0

* * *

assay: Cyclic voltammetry in acetonitrile; assay type: physicochemical; conditions: Tables S1/S2, every redox process listed, acetonitrile, vs SCE, 100 mV.s-1
Epc less than -0.8 V is true; Epc greater than or equal to -0.8 V is false.

# count of solved cases: 3
{"columns": ["smiles_structure", "qualitative_label"],
 "data": [
  ["O=C1C=C(Nc2ccc(O)cc2)C(=O)c2ccccc21", "true"],
  ["Nc1ccc(NC2=CC(=O)C(=O)c3ccccc32)cc1", "false"],
  ["O=C1C=C(Nc2ccc(O)cc2)c2ccccc2C1=O", "false"]
]}

Now consider a different compound.
# TODO verify Epc < -0.8 V strictly for this compound: CCN(CC)C1=CC(=O)c2ccccc2C1=O
true

* * *

test system: HepG2 human hepatocyte carcinoma cell line; assay: MTT cytotoxicity assay against HepG2 cell line; type: cell-based; conditions: HepG2, 24 h incubation, mean ± SD, listed as 1,4-NQ, read-out: EC50 (cytotoxicity, concentration leading to the death of 50% of the cells)
metric_name: EC50 (µM)
Provide only the numeric value, understood in µM.

Reported EC50 for O=C1C=CC(=O)c2ccccc21 [Compound 1, 1,4-naphthoquinone, reference compound] : what is it?
32

* * *

Test: Cyclic voltammetry in acetonitrile
Assay type: physicochemical
Settings: first reduction wave, acetonitrile, vs SCE, scan rate 0.100 V·s−1
Description: […] The redox potentials were measured by cyclic voltammetry using an EG&G Princeton Applied Research (PAR) Model 273A potentiostat/galvanostat monitored by a personal computer with the Electrochemistry PowerSuite v2.51 software from PAR. […] All the potentials reported were measured against the ferrocene/ferrocenium redox couple as internal standard and corrected to SCE (using the ferrocenium/ferrocene redox couple E1/2 = 0.40 V vs. SCE).
Please assign a class to every record based on measured Epc (I), with ranges low bin (below -0.8 V), mid bin (-0.8 V to below -0.6 V), high bin (-0.6 V or more)

{"columns": ["compound", "qualitative_label"],
 "data": [
  ["O=C1C=C(Nc2ccc(Nc3ccccc3)cc2)c2ccccc2C1=O", "mid bin"],
  ["COc1ccc(NC2=CC(=O)c3ccccc3C2=O)cc1", "low bin"],
  ["O=C1C=C(Nc2ccc(O)cc2)C(=O)c2ccccc21", "low bin"],
  ["N#Cc1ccc(NC2=CC(=O)c3ccccc3C2=O)cc1", "mid bin"],
  ["O=C1C=Cc2ccccc2C1=O", "high bin"]
]}

Now consider a different compound.
Band of CCCCNC1=CC(=O)c2ccccc2C1=O ?
low bin

* * *

target: acetylcholinesterase (AChE) (Homo sapiens); assay: AChE inhibition assay (Ellman's colorimetric method); format: biochemical; conditions: read-out: Inhibiton50µM (μM±SD)
The entries below are paired with their reported inhibition at 50 µM.
Provide only the numeric value, understood in %.

Here are 7 molecules together with their reported answers.
{"columns": ["molecule", "measurement"],
 "data": [
  ["COc1ccc(NC2=CC(=O)C(=O)c3ccccc32)cc1", 45.8],
  ["O=C1C=CC(=O)c2ccccc21 [Compound 1, 1,4-naphthoquinone, reference compound]", 50.7],
  ["O=C1C=Cc2ccccc2C1=O", 34.9],
  ["COc1ccc(NC2=CC(=O)c3ccccc3C2=O)cc1", 25.9],
  ["O=C1C=C(Nc2ccc(O)cc2)C(=O)c2ccccc21", 16.4],
  ["N#Cc1ccc(NC2=CC(=O)C(=O)c3ccccc32)cc1", 41.6],
  ["CCN(CC)C1=CC(=O)C(=O)c2ccccc21", 54.7]
]}

Reported inhibition at 50 µM for CCCCNC1=CC(=O)c2ccccc2C1=O : what is it?
48.3

* * *

The entries below are paired with their reported EC50 at 24 h.
test: MTT cytotoxicity assay against HepG2 cell line; assay type: cell-based, human; settings: human, HepG2 cells, HepG2, 24 h incubation, mean ± SD, read-out: EC50 (cytotoxicity, concentration leading to the death of 50% of the cells)
Provide only the numeric value, understood in µM.

{"columns": ["smiles_structure", "metric_name", "measurement"],
 "data": [
  ["N#Cc1ccc(NC2=CC(=O)c3ccccc3C2=O)cc1", "EC50 at 24 h", 79.4],
  ["Nc1ccc(NC2=CC(=O)C(=O)c3ccccc32)cc1", "EC50 at 24 h", 2.7],
  ["O=C1C=C(Nc2ccccc2O)c2ccccc2C1=O", "EC50 at 24 h", 9.1],
  ["O=C1C=C(Nc2ccc(O)cc2)c2ccccc2C1=O", "EC50 at 24 h", 7.1]
]}

Consider the record given below.
Reported EC50 at 24 h for CCN(CC)C1=CC(=O)C(=O)c2ccccc21 : what is it?
23.1

* * *

assay: Cyclic voltammetry in acetonitrile; format: physicochemical; conditions: Tables S1/S2, peak separation, acetonitrile, 100 mV.s-1
The entries below are paired with their reported Epa. Epc.
Provide only the numeric value, understood in mV.

{"columns": ["compound", "Epa. Epc (mV)"],
 "data": [
  ["N#Cc1ccc(NC2=CC(=O)c3ccccc3C2=O)cc1", 80]
]}

Reported Epa. Epc for CCCCNC1=CC(=O)C(=O)c2ccccc21 : what is it?
150

Source: paper PMC9919139
